experiment: probe aNOTCH2 binding on compound microarray – biochemical, small-molecule microarray, 635/667 nm fluorescence, primary screen (AID 1121); settings: higher = more signal;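 also: score merges feature fluorescence read at 667 nm with its signal to noise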
Entries and their composite z-score
ATTRIBUTE MEASURED: composite z-score

1. CCOC(=O)C[C@H]1[C@H](OC(=O)c2cc3ccccc3oc2=O)[C@@H](NC(=O)c2ccc3ccccc3n2)c2cc(OCCCO)ccc2N1C(=O)c1ccc2ccccc2n1 : -0.0294
2. [N-]=[N+]=Nc1ccccc1[C@H]1OC(c2ccc(OCCCO)cc2)=N[C@@]1(Cc1ccccc1)C(=O)NCc1ccccc1 : -0.0714
3. C[N+](C)(C)CCCC[C@@H]1NC(=O)[C@@H]2C[C@H](C(=O)O)[C@H](c3cccc(OCCO)c3)N2C1=O : 0.0022
4. CN1C(=O)C2C=CC(C(O)c3ccc(F)cc3)N(N3CCCCC3)C2C1=O (configuration not stated) : 0.155
5. C[N+](C)(C)CCCCCCNC(=O)[C@@H]1C[C@@H]2C(=O)NCC(=O)N2[C@@H]1c1ccc(O)cc1 : -0.174
6. COc1ccc(C#Cc2ccc3c(c2)[C@]2(C(=O)N3)[C@H](C(=O)O)[C@H]3C(=O)O[C@H](c4ccccc4)[C@H](c4ccccc4)N3[C@@H]2c2ccc(OCCO)cc2)cc1 : 0.0572
7. CN1C(=O)C2C=CC(C(O)c3cccc4ccccc34)N(NC(=O)OC(C)(C)C)C2C1=O (configuration not stated) : 0.385

====

molecular target: Dihydroorotate dehydrogenase (quinone), mitochondrial (Plasmodium falciparum (isolate 3D7)) (UniProt Q08210); test: inhibition of P. falciparum DHODH – biochemical, C-terminal His tag, absorbance 600 nm, primary screen (AID 1175); details: PfDHODH enzyme, DCIP absorbance 600 nm; higher = more signal, called active from +8 up or from −8 down;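 also: recombinant parasite enzyme with a five histidine tag at its C terminus; test concentration not given here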
Sequence (Q08210 whole entry, looked up): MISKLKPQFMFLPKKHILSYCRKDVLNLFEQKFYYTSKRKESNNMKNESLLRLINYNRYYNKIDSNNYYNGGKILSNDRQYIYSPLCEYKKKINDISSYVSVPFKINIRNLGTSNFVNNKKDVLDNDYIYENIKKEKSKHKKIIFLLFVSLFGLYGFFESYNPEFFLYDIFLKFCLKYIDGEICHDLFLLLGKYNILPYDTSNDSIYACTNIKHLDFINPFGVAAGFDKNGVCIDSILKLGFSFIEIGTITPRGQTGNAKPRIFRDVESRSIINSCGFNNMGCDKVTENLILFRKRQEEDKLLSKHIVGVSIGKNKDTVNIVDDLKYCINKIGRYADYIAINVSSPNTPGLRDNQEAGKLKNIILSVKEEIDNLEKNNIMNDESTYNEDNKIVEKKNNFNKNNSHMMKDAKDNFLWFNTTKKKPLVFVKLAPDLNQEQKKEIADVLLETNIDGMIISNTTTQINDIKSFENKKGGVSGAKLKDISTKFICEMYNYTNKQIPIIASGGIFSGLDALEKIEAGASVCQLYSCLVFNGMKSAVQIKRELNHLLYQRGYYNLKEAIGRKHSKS
Quick rule for you: composite z-score at 0.3 or higher means Fulfilled, lower means Not fulfilled.

1. CC(C)C[C@@H]1NC(=O)[C@@]23C(=O)N[C@@H](Cc4ccccc4)C2[C@H](C)[C@@]2(C)O[C@H]2C3/C=C/C/C=C\CNC(=O)[C@@H]2CCCN2C1=O (stereo not given in full) : Not fulfilled
2. COC(=O)[C@@]1(Cc2ccc(OC)cc2)[C@H]2c3cc(C(=O)N(C)C)n(CCF)c3C[C@H]2CN1C(=O)c1ccccc1 : Fulfilled
3. O=C1C2C=CC(C(O)c3ccccn3)N(Nc3ccccc3)C2C(=O)N1c1ccccc1 (stereo not given) : Fulfilled
4. COCCOC(=O)N1C(=O)[C@@]2(c3cc(C#CC4(O)CCCCCC4)ccc31)[C@H](C(=O)N1CCc3cc(OC)c(OC)cc3C1)[C@H]1C(=O)O[C@H](c3ccccc3)[C@H](c3ccccc3)N1[C@@H]2c1ccccc1OCCO : Fulfilled
5. CC1C=C(CCCO)C=C(C(=O)OCCS(C)(=O)=O)C(C(=O)OCCS(C)(=O)=O)=CN1Cc1cccc(OC(F)(F)F)c1 (stereo not given) : Not fulfilled
6. CC(C)(C)OC(=O)CC[C@@]1(C(=O)N2CCCCC2)N=C(c2ccc(OCCCO)cc2)O[C@@H]1c1ccccc1N=[N+]=[N-] : Not fulfilled
7. O=C1O[C@H](c2ccccc2)[C@H](c2ccccc2)N2[C@H]1[C@@H](C(=O)NC[C@H](O)c1ccccc1)[C@]1(C(=O)Nc3ccccc31)[C@H]2c1ccccc1OCCO : Not fulfilled
8. CC(=O)NCCCC[C@@H]1NC(=O)[C@@H]2C[C@H](C(=O)NCCCC[N+](C)(C)C)[C@H](c3cccc(OCCO)c3)N2C1=O : Not fulfilled
9. O=C1C2C=CC(C(O)c3cccc4ccccc34)N(Nc3ccccc3)C2C(=O)N1c1ccccc1 (stereo not given) : Fulfilled
10. COCCCNC(=O)[C@]1(CCS(=O)(=O)c2ccccc2)N=C(c2ccc(OCCCO)cc2)O[C@@H]1c1ccccc1 : Fulfilled
11. O=C(Nc1cc(Br)ccc1C(=O)NCc1cccc(O)c1)c1ccccc1 : Fulfilled
12. C[N+](C)(C)CCCCNC(=O)[C@H]1C[C@H]2C(=O)NCC(=O)N2[C@H]1c1ccc(O)cc1 : Not fulfilled
13. CC(C)CN1C(=O)[C@@]2(Cc3ccccc31)c1ccccc1C(=O)N(Cc1ccccc1)[C@H]2c1ccc(CO)cc1 : Not fulfilled
14. CC(C)[Si](C#C[Si](C(C)C)(C(C)C)C(C)C)(O[C@H](C)c1cn(Cc2cccc(Cl)c2)nn1)C(C)C : Fulfilled
15. Cc1ccc(S[C@]2(C(=O)NCCN3CCOCC3)CC(=O)N(C3Cc4ccccc4C3)[C@@H]2c2ccc(CO)cc2)cc1 : Fulfilled

====

tested on: Plasmodium falciparum Sir2 (PF13_0152, Sir2A); test: Plasmodium falciparum Sir2A binding compounds – biochemical, small-molecule microarray, 635 nm fluorescence, primary screen (AID 1098); conditions: fluorescence 635 nm, higher = more signal;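 also: score merges spot fluorescence intensity with its signal-to-noise ratio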
Quick rule for you: composite z-score at 1 or higher means true (1), lower means false (0).

1. COCCCNC(=O)[C@@H]1c2ccccc2C(=O)N(c2ccc(C)cn2)[C@H]1c1ccc(CO)cc1 : true (1)
2. C=CCNC(=O)[C@H]1[C@@H]2C(=O)O[C@@H](c3ccccc3)[C@@H](c3ccccc3)N2[C@@H](c2ccc(O)cc2)[C@]12C(=O)N(C(=O)OCCOC)c1ccc(C#CC3(O)CCCCCC3)cc12 : true (1)
3. C=CCC(OC(C)=O)[C@@H]1[C@@H](N(Cc2cccc3ccccc23)C(=O)c2ccc(C)cc2)c2cc(OCCCO)ccc2N1C(=O)c1ccc2ccccc2c1 (stereo partly drawn) : false (0)
4. C=C(COC)C(=O)CC[C@H](OC(=O)c1ccccc1-c1ccccc1C(=O)O)c1ccc(OCCO)cc1 : true (1)
5. [N-]=[N+]=NCc1ccccc1[C@H]1OC(c2ccc(OCCCO)cc2)=N[C@@]1(Cc1ccccc1N=[N+]=[N-])C(=O)N1CCCCC1 : true (1)
6. COC(=O)[C@@]1(Cc2ccccc2)[C@H]2c3cc(C(=O)N(C)C)n(Cc4ccccn4)c3C[C@H]2CN1C(=O)c1ccccc1 : true (1)
7. COc1ccc([Si](C)(C)[C@@H]2[C@@H](CCO)O[C@]3(C(=O)N(Cc4ccccc4)c4ccc(N5C(=O)COc6ccccc65)cc43)[C@H]2C)cc1 : false (0)
8. O=C1C2C=CC(C(O)c3cccc4ccccc34)N(Nc3ccccc3)C2C(=O)N1c1ccccc1 (stereo not drawn) : true (1)
9. COc1ccc(C#Cc2ccc3c(c2)[C@]2(C(=O)N3)[C@H](C(=O)O)[C@H]3C(=O)O[C@H](c4ccccc4)[C@H](c4ccccc4)N3[C@@H]2c2ccc(OCCO)cc2)cc1 : true (1)
10. O=C1c2ccccc2C(=O)C2CC([C@H]3Oc4ccccc4S(=O)(=O)N4CCC[C@@H]34)=CCC12 (stereo partly drawn) : false (0)
11. COCCOC(=O)N1C(=O)[C@@]2(c3cc(C#CCC(C(=O)OC)C(=O)OC)ccc31)[C@H](c1ccc(OCCO)cc1)N1[C@H](c3ccccc3)[C@H](c3ccccc3)OC(=O)[C@H]1[C@@H]2C(N)=O : true (1)
12. CCOC(=O)C[C@H]1[C@H](OC(=O)c2ccc(C(=O)c3ccccc3)cc2)[C@@H](NC(=O)C2CCCCC2)c2cc(OCCCO)ccc2N1C(=O)Cc1ccc(OC)cc1 : false (0)
13. C[N+](C)(C)CCCC[C@@H]1NC(=O)[C@H]2C[C@@H](C(=O)NCCCCCCN)[C@@H](c3cccc(OCCO)c3)N2C1=O : true (1)

====

Entries and their z-score
assay: resazurin metabolic signal in A549 cells – cell-based, resazurin fluorescence, 24 h, PK04 Diversity Set, profiling panel (AID 1171); conditions: A549 viability, higher = more signal, called active from +8 up or from −8 down; also: test concentration not given here
ATTRIBUTE MEASURED: z-score

1) COc1ccc(CCNC(=O)[C@@H]2c3ccccc3C(=O)N(Cc3ccccc3C(F)(F)F)[C@H]2c2ccc(CO)cc2)cc1 : 2.22
2) CC(C)C(CO)N1C(=O)[C@@H]2[C@H]3C(=O)OCC=C[C@H]3OC23C=CCN(Cn2nnc4ccccc42)C(=O)[C@@H]13 (some centres undefined) : -0.274
3) CN(C)C(=O)[C@@]1(CCC(=O)OC(C)(C)C)COC(c2ccc(OCCCO)cc2)=N1 : 0.594
4) CC(=O)NCCCC[C@@H]1NC(=O)[C@@H]2C[C@H](C(=O)NCCCC[N+](C)(C)C)[C@H](c3cccc(OCCO)c3)N2C1=O : -0.485

====

Entries and their composite z-score
experiment: small molecules captured by biotinylated probe aFGF2 – biochemical, small-molecule microarray, fluorescence 635/667, stem cell growth factor project, primary screen (AID 1067); settings: higher = more signal;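 also: measures binding of biotinylated aFGF2 protein to printed compounds on slides; z-score merges feature fluorescence and signal-to-noise across triplicate slides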
ATTRIBUTE MEASURED: composite z-score

1. Cc1ccc(N2C(=O)c3ccccc3[C@](C)(C(=O)NC(C)C)[C@@H]2c2ccc(CO)cc2)nc1 : -0.254
2. Cc1ccccc1C(O)C1C=CC2C(=O)N(Cc3ccccc3)C(=O)C2N1n1cnnc1 (stereo unspecified) : -0.0085
3. COc1cccc(C)c1NC(=O)O[C@H]1[C@H](OC(=O)Nc2ccccc2)[C@H](OC(=O)Nc2ccccc2)[C@@H](OC)O[C@@H]1CO : -0.0216
4. COc1ccc(C(=O)Nc2ccc(CN3C(=O)[C@@]4(O[C@@H](CC(=O)N5Cc6ccccc6C[C@H]5CO)[C@H]([Si](C)(C)c5ccc(OC)cc5)[C@H]4C)c4ccccc43)cc2)cc1 : 0.0275
5. CCOC(=O)C1=CC[C@@H](c2ccc(N(CC)CC)cc2)N(S(=O)(=O)c2ccc(C)cc2)[C@H]1c1ccc([N+](=O)[O-])cc1 : -0.0336
6. COCCOC(=O)N1C(=O)[C@@]2(c3cc(C#Cc4ccc(OC)cc4)ccc31)[C@H](c1ccc(OCCO)cc1)N1[C@H](c3ccccc3)[C@H](c3ccccc3)OC(=O)[C@H]1[C@@H]2C(N)=O : -0.0128
